# test-system: Serotonin 2 (5-HT2) receptor (Rattus norvegicus, UniProt P30994+P08909+P14842)
quantity-kind: Log Ki
// keep it numeric: no unit symbol after the value

* COc1ccc2[nH]cc(C[C@@H](C)N)c2c1 | -5.89

Kindly consider the entry below.
IN: Any idea what its Log Ki is? The compound is COc1ccc2[nH]cc(C[C@H](C)N)c2c1
OUT: -6.15

----------
# test-system: UniProtKB P28564
# Sequence (P28564 whole entry): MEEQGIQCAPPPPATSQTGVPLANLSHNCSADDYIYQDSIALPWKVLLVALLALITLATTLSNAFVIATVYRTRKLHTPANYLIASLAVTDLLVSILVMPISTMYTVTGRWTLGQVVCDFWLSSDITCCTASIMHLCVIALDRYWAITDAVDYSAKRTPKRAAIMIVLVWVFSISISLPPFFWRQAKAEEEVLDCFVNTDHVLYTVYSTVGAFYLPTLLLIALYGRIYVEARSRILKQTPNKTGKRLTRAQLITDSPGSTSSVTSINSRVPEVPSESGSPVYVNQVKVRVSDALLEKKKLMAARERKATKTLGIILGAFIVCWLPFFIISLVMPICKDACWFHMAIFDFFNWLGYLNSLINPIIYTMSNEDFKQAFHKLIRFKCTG
API: label(entry) gives satisfied if the entry's Ki is strictly smaller than 800 nM; on equality or larger values it gives not satisfied.

# example entries with known answers
- COc1cccc2[nH]cc(C[C@H](C)N)c12: not satisfied
- C[C@@H](N)Cc1c[nH]c2cccc(O)c12: not satisfied
- C[C@H](N)Cc1c[nH]c2cccc(O)c12: not satisfied
- COc1ccc2c(C[C@@H](C)N)c[nH]c2c1: not satisfied
- COc1ccc2[nH]cc(C[C@@H](C)N)c2c1: satisfied
- COc1ccc2[nH]cc(C[C@H](C)N)c2c1: satisfied

We next turn to a different compound, shown below.
IN: Please check: Ki for COc1ccc2c(C[C@H](C)N)c[nH]c2c1 , strictly under 800 nM or not?
OUT: not satisfied
